assay: The drug is tested on Ruminococcus lactaris strain: ATCC29176 for biotransformation. The drug concentrations were measured before and after a 12-h incubation by liquid-chromatography-coupled mass spectrometry (LC–MS); details: 2 µM
Measured quantity: Bacterial Biotransformation

{"Molecule": "CC(=O)OCC(=O)[C@@]12N=C(C)O[C@@H]1C[C@H]1[C@@H]3CCC4=CC(=O)C=C[C@]4(C)[C@H]3[C@@H](O)C[C@@]12C", "Data value": "Compound metabolized"}
{"Molecule": "O=C(O)CCC(=O)O.O=C(O[C@H]1CN2CCC1CC2)N1CCc2ccccc2[C@@H]1c1ccccc1 [SOLIFENACIN SUCCINATE]", "Data value": "Compound NOT metabolized"}
{"Molecule": "CN/C(=N/CCSCc1nc[nH]c1C)NC#N", "Data value": "Compound NOT metabolized"}
{"Molecule": "COC1=C(OC)C(=O)C(CCCCCCCCCCO)=C(C)C1=O", "Data value": "Compound metabolized"}
{"Molecule": "C[C@H]1O[C@@H](O[C@H]2[C@@H](O)C[C@H](O[C@H]3[C@@H](O)C[C@H](O[C@H]4CC[C@@]5(C)[C@H](CC[C@@H]6[C@@H]5C[C@@H](O)[C@]5(C)[C@@H](C7=CC(=O)OC7)CC[C@]65O)C4)O[C@@H]3C)O[C@@H]2C)C[C@H](O)[C@@H]1O", "Data value": "Compound NOT metabolized"}
{"Molecule": "CCN(CC)CCOC(=O)C(Cc1cccc2ccccc12)CC1CCCO1.O=C(O)C(=O)O (stereo unspecified) [NAFRONYL OXALATE]", "Data value": "Compound NOT metabolized"}
{"Molecule": "CC1OC(OC2C(O)CC(OC3C(O)CC(OC4CCC5(C)C(CCC6C5CCC5(C)C(C7=CC(=O)OC7)CCC65O)C4)OC3C)OC2C)CC(O)C1O (stereo unspecified)", "Data value": "Compound NOT metabolized"}
{"Molecule": "COc1ccccc1N1CCN(CC(O)COc2cccc3ccccc23)CC1 (stereo unspecified)", "Data value": "Compound NOT metabolized"}
{"Molecule": "CN1CCN2c3ccccc3Cc3ccccc3C2C1 (stereo unspecified)", "Data value": "Compound NOT metabolized"}
{"Molecule": "CC#CCn1c(N2CCC[C@@H](N)C2)nc2c1c(=O)n(Cc1nc(C)c3ccccc3n1)c(=O)n2C", "Data value": "Compound NOT metabolized"}
{"Molecule": "CCOc1ccc(NC(C)=O)cc1", "Data value": "Compound NOT metabolized"}
{"Molecule": "COc1ccc([C@@H]2Sc3ccccc3N(CCN(C)C)C(=O)[C@@H]2OC(C)=O)cc1", "Data value": "Compound metabolized"}
{"Molecule": "O=C(NC(Cc1cc(=O)[nH]c2ccccc12)C(=O)O)c1ccc(Cl)cc1 (stereo unspecified) [REBAMIPIDE]", "Data value": "Compound NOT metabolized"}
{"Molecule": "O=C1C(CC[S+]([O-])c2ccccc2)C(=O)N(c2ccccc2)N1c1ccccc1 (stereo unspecified)", "Data value": "Compound NOT metabolized"}
{"Molecule": "CC(=O)CC(c1ccccc1)c1c(O)c2ccccc2oc1=O (stereo unspecified)", "Data value": "Compound NOT metabolized"}
{"Molecule": "CNCCC(Oc1ccc(C(F)(F)F)cc1)c1ccccc1 (stereo unspecified)", "Data value": "Compound metabolized"}

----------
experiment: The drug is tested on Providencia stuartii strain: ATCC25827 for biotransformation. The drug concentrations were measured before and after a 12-h incubation by liquid-chromatography-coupled mass spectrometry (LC–MS); conditions: 2 µM

{"Compound": "CNC(=C[N+](=O)[O-])NCCSCc1ccc(CN(C)C)o1 [RANITIDINE]", "Bacterial Biotransformation": "Compound NOT metabolized"}
{"Compound": "O=C1N=C([O-])NC1(c1ccccc1)c1ccccc1.[Na+] [PHENYTOIN SODIUM]", "Bacterial Biotransformation": "Compound NOT metabolized"}
{"Compound": "Nc1nnc(-c2cccc(Cl)c2Cl)c(N)n1 [LAMOTRIGINE]", "Bacterial Biotransformation": "Compound NOT metabolized"}
{"Compound": "CCc1oc2ccccc2c1C(=O)c1cc(Br)c(O)c(Br)c1 [BENZBROMARONE]", "Bacterial Biotransformation": "Compound NOT metabolized"}
{"Compound": "Cc1nc(Nc2ncc(C(=O)Nc3c(C)cccc3Cl)s2)cc(N2CCN(CCO)CC2)n1.O [DASATINIB]", "Bacterial Biotransformation": "Compound NOT metabolized"}
{"Compound": "COc1cc2c(c(OC)c1OC)-c1ccc(OC)c(=O)cc1[C@@H](NC(C)=O)CC2 [COLCHICINE]", "Bacterial Biotransformation": "Compound NOT metabolized"}
{"Compound": "O=C(O[C@H]1C[C@H]2CC[C@@H](C1)[N+]21CCCC1)C(O)(c1ccccc1)c1ccccc1.[Cl-] [TROSPIUM CHLORIDE]", "Bacterial Biotransformation": "Compound NOT metabolized"}
{"Compound": "CN(C)CCOC(C)(c1ccccc1)c1ccccn1.O=C(O)CCC(=O)O (stereo not drawn) [DOXYLAMINE SUCCINATE]", "Bacterial Biotransformation": "Compound NOT metabolized"}
{"Compound": "O=c1[nH]c2ccccc2n1C1CCN(CCCC(c2ccc(F)cc2)c2ccc(F)cc2)CC1 [PIMOZIDE]", "Bacterial Biotransformation": "Compound NOT metabolized"}
{"Compound": "COc1ccc(CN2CCNCC2)c(OC)c1OC.Cl.Cl [TRIMETAZIDINE DIHYDROCHLORIDE]", "Bacterial Biotransformation": "Compound NOT metabolized"}
{"Compound": "CC#C[C@]1(O)CC[C@H]2[C@@H]3CCC4=CC(=O)CCC4=C3[C@@H](c3ccc(N(C)C)cc3)C[C@@]21C [MIFEPRISTONE]", "Bacterial Biotransformation": "Compound NOT metabolized"}
{"Compound": "CC(=O)CCCCn1c(=O)c2c(ncn2C)n(C)c1=O [PENTOXIFYLLINE]", "Bacterial Biotransformation": "Compound NOT metabolized"}
{"Compound": "COC(=O)C1=C(C)NC(C)=C(C(=O)OC(C)C)C1c1cccc2nonc12 (stereo not drawn) [ISRADIPINE]", "Bacterial Biotransformation": "Compound NOT metabolized"}

----------
Biological target: Nitroreductase domain-containing protein (Phocaeicola dorei)
Sequence (B6VU18 whole entry): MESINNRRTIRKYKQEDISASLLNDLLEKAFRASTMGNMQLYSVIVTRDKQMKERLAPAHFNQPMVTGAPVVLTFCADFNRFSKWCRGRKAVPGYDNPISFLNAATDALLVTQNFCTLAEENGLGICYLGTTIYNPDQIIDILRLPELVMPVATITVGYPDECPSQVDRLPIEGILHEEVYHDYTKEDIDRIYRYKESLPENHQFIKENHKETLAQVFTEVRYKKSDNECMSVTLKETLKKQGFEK
Experiment: The drug is tested on Bacteroides dorei strain: DSM17855 for biotransformation. The drug concentrations were measured before and after a 12-h incubation by liquid-chromatography-coupled mass spectrometry (LC–MS)
Format: ADME
Design: dose 2 uM
Settings: 2 µM
Measured quantity: Bacterial Biotransformation

{"Molecule": "C#C[C@]1(OC(C)=O)CC[C@H]2[C@@H]3CCC4=CC(=O)CC[C@@H]4[C@H]3CC[C@@]21C [NORETHINDRONE ACETATE]", "Data value": "Compound NOT metabolized"}
{"Molecule": "C[C@]12CCC(=O)C=C1[C@@H]1C[C@@H]1[C@H]1[C@@H]3[C@@H]4C[C@@H]4[C@@]4(CCC(=O)O4)[C@@]3(C)CC[C@@H]12", "Data value": "Compound NOT metabolized"}
{"Molecule": "CC(=O)SCC(Cc1ccccc1)C(=O)NCC(=O)OCc1ccccc1 (centres undefined)", "Data value": "Compound NOT metabolized"}

----------
assay: The drug is tested on Clostridium ramosum strain: DSM1402 for biotransformation. The drug concentrations were measured before and after a 12-h incubation by liquid-chromatography-coupled mass spectrometry (LC–MS); details: thomasclavelia ramosa, 2 µM

{"Compound": "Cc1nc2n(c(=O)c1CCN1CCC(c3noc4cc(F)ccc34)CC1)CCCC2O (centres undefined) [PALIPERIDONE]", "Bacterial Biotransformation": "Compound metabolized"}
{"Compound": "CO[C@]12C[C@@H](COC(=O)c3cncc(Br)c3)CN(C)[C@@H]1Cc1cn(C)c3cccc2c13 [NICERGOLINE]", "Bacterial Biotransformation": "Compound NOT metabolized"}
{"Compound": "CS(=O)(=O)O.O.O.O.O=C1Cc2cc(CCN3CCN(c4nsc5ccccc45)CC3)c(Cl)cc2N1 [ZIPRASIDONE MESYLATE]", "Bacterial Biotransformation": "Compound NOT metabolized"}
{"Compound": "Cc1ccc(/C(=C\\CN2CCCC2)c2ccccn2)cc1 [TRIPROLIDINE]", "Bacterial Biotransformation": "Compound NOT metabolized"}
{"Compound": "CNS(=O)(=O)Cc1ccc2[nH]cc(CCN(C)C)c2c1.O=C(O)CCC(=O)O [SUMATRIPTAN SUCCINATE]", "Bacterial Biotransformation": "Compound NOT metabolized"}
{"Compound": "COc1c2occc2cc2ccc(=O)oc12 [METHOXSALEN]", "Bacterial Biotransformation": "Compound metabolized"}
{"Compound": "CC(C)c1nc(CN(C)C(=O)N[C@H](C(=O)N[C@@H](Cc2ccccc2)C[C@H](O)[C@H](Cc2ccccc2)NC(=O)OCc2cncs2)C(C)C)cs1 [RITONAVIR]", "Bacterial Biotransformation": "Compound NOT metabolized"}
{"Compound": "CN1CCC(=C2c3ccccc3CCc3cccnc32)CC1.O=C(O)/C=C\\C(=O)O.O=C(O)/C=C\\C(=O)O [AZATADINE MALEATE]", "Bacterial Biotransformation": "Compound NOT metabolized"}
{"Compound": "c1ccc2[nH]c(-c3cscn3)nc2c1 [THIABENDAZOLE]", "Bacterial Biotransformation": "Compound NOT metabolized"}
{"Compound": "CCOC(=O)[C@H](CCc1ccccc1)N[C@@H](C)C(=O)N1[C@H](C(=O)O)C[C@@H]2CCC[C@@H]21", "Bacterial Biotransformation": "Compound NOT metabolized"}
{"Compound": "Nc1nnc(-c2cccc(Cl)c2Cl)c(N)n1 [LAMOTRIGINE]", "Bacterial Biotransformation": "Compound NOT metabolized"}
{"Compound": "Cc1ccc(S(=O)(=O)NC(=O)NN2CCCCCC2)cc1 [TOLAZAMIDE]", "Bacterial Biotransformation": "Compound NOT metabolized"}
{"Compound": "CCN(CC)CCOCCOC(=O)C1(c2ccccc2)CCCC1.O=C(O)CC(O)(CC(=O)O)C(=O)O [CARBETAPENTANE CITRATE]", "Bacterial Biotransformation": "Compound metabolized"}
{"Compound": "CC(C)NCC(O)COc1ccc(COCCOC(C)C)cc1.CC(C)NCC(O)COc1ccc(COCCOC(C)C)cc1.O=C(O)/C=C/C(=O)O (centres undefined) [BISOPROLOL FUMARATE]", "Bacterial Biotransformation": "Compound NOT metabolized"}
{"Compound": "NC12CC3CC(CC(C3)C1)C2 [AMANTADINE]", "Bacterial Biotransformation": "Compound NOT metabolized"}
{"Compound": "COC(=O)C1=C(C)NC(C)=C(C(=O)OC(C)C)C1c1cccc2nonc12 (centres undefined) [ISRADIPINE]", "Bacterial Biotransformation": "Compound NOT metabolized"}
{"Compound": "CC(C)NCC(O)c1ccc(NS(C)(=O)=O)cc1 (centres undefined) [SOTALOL]", "Bacterial Biotransformation": "Compound NOT metabolized"}
{"Compound": "CCN(CC)CCNC(=O)c1cc(S(C)(=O)=O)ccc1OC [TIAPRIDE]", "Bacterial Biotransformation": "Compound NOT metabolized"}
{"Compound": "CS(=O)(=O)O.OC(CCN1CCCCC1)(c1ccccc1)c1ccccc1 [PRIDINOL METHANESULFONATE]", "Bacterial Biotransformation": "Compound NOT metabolized"}
{"Compound": "COc1cc2nc(N3CCN(C(=O)C4COc5ccccc5O4)CC3)nc(N)c2cc1OC.CS(=O)(=O)O (centres undefined) [DOXAZOSIN MESYLATE]", "Bacterial Biotransformation": "Compound NOT metabolized"}
{"Compound": "Cc1ccc(-c2nc3ccc(C)cn3c2CC(=O)N(C)C)cc1 [ZOLPIDEM]", "Bacterial Biotransformation": "Compound NOT metabolized"}
{"Compound": "COc1ccc2[nH]c([S+]([O-])Cc3ncc(C)c(OC)c3C)nc2c1 (centres undefined) [OMEPRAZOLE]", "Bacterial Biotransformation": "Compound metabolized"}
{"Compound": "COc1ccccc1OCC(O)COC(N)=O (centres undefined) [METHOCARBAMOL]", "Bacterial Biotransformation": "Compound NOT metabolized"}
{"Compound": "CN(C)CCOC(c1ccc(Cl)cc1)c1ccccn1.O=C(O)/C=C\\C(=O)O (centres undefined) [CARBINOXAMINE MALEATE]", "Bacterial Biotransformation": "Compound NOT metabolized"}
{"Compound": "CN(C)C(=O)C(CCN1CCC(O)(c2ccc(Cl)cc2)CC1)(c1ccccc1)c1ccccc1 [LOPERAMIDE]", "Bacterial Biotransformation": "Compound NOT metabolized"}
{"Compound": "CN(C)CCc1c[nH]c2ccc(Cn3cncn3)cc12.O=C(O)c1ccccc1 [RIZATRIPTAN BENZOATE]", "Bacterial Biotransformation": "Compound NOT metabolized"}
{"Compound": "C[C@@H]1CC[C@H]2[C@@H](C)C(=O)O[C@@H]3O[C@@]4(C)CC[C@@H]1[C@]32OO4 [ARTEMISININ]", "Bacterial Biotransformation": "Compound metabolized"}
{"Compound": "CCN(CC)CCOC(=O)C1(C2CCCCC2)CCCCC1 [DICYCLOMINE]", "Bacterial Biotransformation": "Compound NOT metabolized"}
{"Compound": "CCCN1C[C@H](CSC)C[C@@H]2c3cccc4[nH]cc(c34)C[C@H]21.CS(=O)(=O)O [PERGOLIDE MESYLATE]", "Bacterial Biotransformation": "Compound NOT metabolized"}
{"Compound": "CCN(CC)CCCC(C)Nc1c2ccc(Cl)cc2nc2ccc(OC)cc12 (centres undefined) [QUINACRINE]", "Bacterial Biotransformation": "Compound NOT metabolized"}
{"Compound": "O=C(O)c1cc(/N=N/c2ccc(S(=O)(=O)Nc3ccccn3)cc2)ccc1O [SULFASALAZINE]", "Bacterial Biotransformation": "Compound metabolized"}
{"Compound": "CCc1nn(CCCN2CCN(c3cccc(Cl)c3)CC2)c(=O)n1CCOc1ccccc1 [NEFAZODONE]", "Bacterial Biotransformation": "Compound NOT metabolized"}
{"Compound": "Cc1cc2c(s1)Nc1ccccc1N=C2N1CCN(C)CC1 [OLANZAPINE]", "Bacterial Biotransformation": "Compound NOT metabolized"}
{"Compound": "CN1C(=O)CC(C)(c2ccccc2)C1=O (centres undefined) [METHSUXIMIDE]", "Bacterial Biotransformation": "Compound NOT metabolized"}
